- Tested on: ISC-enriched organoids
- measurement protocol: Primary screen, 384-well 2.5-D organoid differentiation (ENR+CD, 6 days, Target Selective Inhibitor Library, vs whole-plate median): ATP (CellTiter-Glo 3D, CTG)
- measurement parameters: Dose 0.40 uM; ENR+CD, 6 days; FC vs plate median
Dose.FC.CTG overview

- molecule: "COc1ccc(C[C@@H](C)NC[C@H](O)c2ccc(O)c(NC=O)c2)cc1.COc1ccc(C[C@@H](C)NC[C@H](O)c2ccc(O)c(NC=O)c2)cc1.O=C(O)/C=C/C(=O)O [Formoterol Hemifumarate]"
  measured target: "ISC-enriched organoids"
  unit spec: "log 2 fold change"
  Dose.FC.CTG: 0.265
- molecule: "COc1cc(Nc2ncc(F)c(Nc3ccc4c(n3)N(COP(=O)(O)O)C(=O)C(C)(C)O4)n2)cc(OC)c1OC [Fostamatinib (R788)]"
  measured target: "ISC-enriched organoids"
  unit spec: "log 2 fold change"
  Dose.FC.CTG: "−0.052"
- molecule: "OC[C@H]1O[C@@H](c2ccc(Cl)c(Cc3ccc(O[C@H]4CCOC4)cc3)c2)[C@H](O)[C@@H](O)[C@@H]1O"
  measured target: "ISC-enriched organoids"
  unit spec: "log 2 fold change"
  Dose.FC.CTG: "−0.075"
- molecule: "NC(=O)C1CCCc2c1[nH]c1ccc(Cl)cc21 (stereo not shown) [EX 527 (Selisistat)]"
  measured target: "ISC-enriched organoids"
  unit spec: "log 2 fold change"
  Dose.FC.CTG: 0.174
- molecule: "NC1(Cc2ccc(Cl)cc2)CCN(c2ncnc3[nH]ccc23)CC1 [CCT128930, reference compound]"
  measured target: "ISC-enriched organoids"
  unit spec: "log 2 fold change"
  Dose.FC.CTG: "−0.025"
- molecule: "CC(C)c1cc(-c2n[nH]c(=O)n2-c2ccc3c(ccn3C)c2)c(O)cc1O [Ganetespib (STA-9090)]"
  measured target: "ISC-enriched organoids"
  unit spec: "log 2 fold change"
  Dose.FC.CTG: "−2.105"
- molecule: "C[C@H](N[C@@H](CCc1ccccc1)C(=O)O)C(=O)N1CCC[C@H]1C(=O)O.O.O [Enalaprilat Dihydrate]"
  measured target: "ISC-enriched organoids"
  unit spec: "log 2 fold change"
  Dose.FC.CTG: "−0.124"
- molecule: "O=C(O)c1cc2cccc([N+](=O)[O-])c2[nH]1"
  measured target: "ISC-enriched organoids"
  unit spec: "log 2 fold change"
  Dose.FC.CTG: "−0.040"
- molecule: "Cc1[nH]c2ccccc2c1CCNC(=O)c1cccs1"
  measured target: "ISC-enriched organoids"
  unit spec: "log 2 fold change"
  Dose.FC.CTG: "−0.004"
- molecule: "CO[C@H]1C[C@@H]2CC[C@@H](C)[C@@](O)(O2)C(=O)C(=O)N2CCCC[C@H]2C(=O)O[C@H]([C@H](C)C[C@@H]2CC[C@@H](OCCO)[C@H](OC)C2)CC(=O)[C@H](C)/C=C(\\C)[C@@H](O)[C@@H](OC)C(=O)[C@H](C)C[C@H](C)/C=C/C=C/C=C/1C [Everolimus (RAD001)]"
  measured target: "ISC-enriched organoids"
  unit spec: "log 2 fold change"
  Dose.FC.CTG: 0.127
- molecule: "Nc1ncnc2n[nH]c(Nc3ccc(F)cc3)c12"
  measured target: "ISC-enriched organoids"
  unit spec: "log 2 fold change"
  Dose.FC.CTG: "−0.293"
- molecule: "CC(C)(C)c1nc(-c2cccc(NS(=O)(=O)c3c(F)cccc3F)c2F)c(-c2ccnc(N)n2)s1"
  measured target: "ISC-enriched organoids"
  unit spec: "log 2 fold change"
  Dose.FC.CTG: 0.011
- molecule: "CS(=O)(=O)N1CCN(Cc2cc3nc(-c4cccc5[nH]ncc45)nc(N4CCOCC4)c3s2)CC1"
  measured target: "ISC-enriched organoids"
  unit spec: "log 2 fold change"
  Dose.FC.CTG: 0.022
